pIC50: −log10 of the molar value. Counter-ions that a name gives are not always drawn.
pIC50 values recorded for PDE10A (Homo sapiens, UniProt Q9Y233)
reported_property: pIC50

Some compounds with known pIC50 results, for comparison:
| compound | pIC50 |
| --- | --- |
| CCCc1nc(O)c(Cc2cc3cc4c(cc3nc2NCC)OCO4)c2cc(OC)c(OC)cc12 [Compound 64, dihydrochloride] | 8.92 |
| CCCNc1nc2ccc(OC)cc2cc1Cc1c(O)nc(C)c2cc(OC)c(OC)cc12 [Compound 38, dihydrochloride] | 8.57 |
| COc1cc2c(C)nc(O)c(Cc3cccc4cnccc34)c2cc1OC [Compound 22, dihydrochloride] | 6.48 |
| CCc1nc(O)c(Cc2ccc3ccccc3c2)c2cc(OC)c(OC)cc12 [Compound 19, hydrochloride] | 7.96 |

(A) CCCc1nc(O)c(Cc2cc3cc(OCC)ccc3nc2NCCNC(C)=O)c2cc(OC)c(OC)cc12 [Compound 88, dihydrochloride]
(B) COc1cc2c(C)nc(O)c(Cc3ccncc3)c2cc1OC [Compound 11, hydrochloride]
Query :: // pick larger pIC50 from pair: A vs B Answer = label.
Result :: A
